// provenance: ChEMBL document CHEMBL1201862

Tested on: HT-29
Experiment: NCI tumour cell line growth inhibition, 48 h
Active and inactive are the calls of the source. No stated cut-off is given here; in the data, active = GI50 up to about 1.1 µM and inactive = higher.
endpointName: GI50

Identify measured GI50 associated with N#CC1=C(S)N(C2OC(CO)C(O)C(O)C2O)C(c2ccccc2)=CC1c1cccs1 (centres undefined)
17 µM (inactive)

Identify measured GI50 associated with CC(C)C(Sc1nc(N)nc2nc[nH]c12)C(=O)O (centres undefined)
> 100 µM (inactive)

Identify measured GI50 associated with COC1(C2c3ccccc3CCN2C(=O)OC(C)(C)C)C(=O)C(c2ccccc2)=C1N(C)C (centres undefined)
18.1 µM (inactive)

Identify measured GI50 associated with Cc1ccccc1NC(=O)O/N=C(\Cl)C(C)C
5.56 µM (inactive)

Identify measured GI50 associated with COc1ccc(-c2nnc3n(Cc4ccccc4)c4ccccc4n3c2=O)cc1
> 100 µM (inactive)

Identify measured GI50 associated with CCSC1(SCC)CCN(/C=N/C(C)(C)C)C1
> 100 µM (inactive)

Identify measured GI50 associated with Cc1nn(C)c2nc3ccc(Cl)cc3c(-c3ccccc3)c12
> 100 µM (inactive)

Identify measured GI50 associated with OC12CC3c4ccccc4NC3C3Oc4cccc5c4C31CCN(CC1CC1)C2C5 (centres undefined)
15.5 µM (inactive)

Identify measured GI50 associated with COc1ccc(/C=C2\CCCCCC2=O)cc1
> 100 µM (inactive)
